Target: Nrf2-Keap1 complex (Homo sapiens)
Experiment: cell-based
Format: cell-based
Conditions: 3 h, read-out: Activation 100 nL
Where a name gives a salt, the structure may show the parent alone.
quantity_measured: activation at 16 µM (%)
The answer is to be given in %; state only the numeric part.

Respond only with activation at 16 µM recorded for CCCCC(CC)CNC(=N)NC(=N)NCCCCCCNC(=N)NC(=N)NCC(CC)CCCC (stereo not shown) [ALEXIDINEHYDROCHLORIDE]
101

Respond only with activation at 16 µM recorded for CC(C)=CCCC1(C)C=Cc2c(O)c3c(c(CC=C(C)C)c2O1)OC12C(=CCCC1C(C)(C)O[C@@]2(C/C=C(\C)C(=O)O)C(=O)O)C3=O (stereo partly shown) [GARCINOLICACID]
29

Respond only with activation at 16 µM recorded for COc1cc2nc(N3CCN(C(=O)c4ccco4)CC3)nc(N)c2cc1OC [PRAZOSINHYDROCHLORIDE, reference compound]
87

----------
Target: Nrf2-Keap1 complex (Homo sapiens, UniProt Q14145)
Sequence (Q14145 whole entry, one chain of several): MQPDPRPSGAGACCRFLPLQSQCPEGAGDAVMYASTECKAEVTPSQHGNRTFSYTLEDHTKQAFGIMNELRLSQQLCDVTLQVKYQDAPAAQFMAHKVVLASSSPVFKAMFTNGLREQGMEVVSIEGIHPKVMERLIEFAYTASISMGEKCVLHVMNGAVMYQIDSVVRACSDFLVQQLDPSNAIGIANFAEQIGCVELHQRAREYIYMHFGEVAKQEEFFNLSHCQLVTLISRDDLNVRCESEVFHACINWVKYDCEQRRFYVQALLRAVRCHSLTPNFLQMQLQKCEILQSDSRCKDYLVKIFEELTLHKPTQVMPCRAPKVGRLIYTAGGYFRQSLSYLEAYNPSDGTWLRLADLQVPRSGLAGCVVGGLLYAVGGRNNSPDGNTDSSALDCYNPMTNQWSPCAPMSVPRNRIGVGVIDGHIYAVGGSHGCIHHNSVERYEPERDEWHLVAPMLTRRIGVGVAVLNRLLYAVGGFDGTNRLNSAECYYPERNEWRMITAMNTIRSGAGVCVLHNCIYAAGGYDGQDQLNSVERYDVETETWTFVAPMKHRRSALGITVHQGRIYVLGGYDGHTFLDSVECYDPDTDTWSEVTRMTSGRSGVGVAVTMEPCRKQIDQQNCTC
Test: cell-based
Assay type: cell-based
Conditions: 3 h, read-out: Activation 100 nL
Recorded measurements of activation at 16 µM, one per entry
Give your result as the value with the unit written after it.

Some solved entries appear below for comparison.
C=C1C[C@@H]2[C@H](CC[C@]3(C)C(=O)CC[C@@H]23)[C@@]2(C)C=CC(=O)C=C12 [EXEMESTANE, reference compound]
261%
Nc1ncnc2c1ncn2[C@@H]1O[C@H](CO)[C@@H](O)[C@H]1O [ADENOSINE, reference compound]
61%
CC1(C)C(=O)C=C[C@]2(C)[C@H]3CC[C@@]4(C)[C@H](c5ccoc5)OC(=O)[C@H]5O[C@]54[C@]3(C)[C@H](O)C[C@@H]12
69%
CCCSc1ccc2nc(NC(=O)OC)[nH]c2c1 [ALBENDAZOLE, reference compound]
191%
NC(=O)c1ccc[n+]([C@@H]2O[C@H](COP(=O)([O-])OP(=O)(O)OC[C@H]3O[C@@H](n4cnc5c(N)ncnc54)[C@H](O)[C@@H]3O)[C@@H](O)[C@H]2O)c1 [NADIDE, reference compound]
31%

Respond only with activation at 16 µM recorded for O=C1c2ccccc2C(=O)c2c(O)c(O)cc(O)c21
54%

Respond only with activation at 16 µM recorded for O=C(O)/C=C/c1ccc(O)c(O)c1 [[…]]
50%

----------
Molecular target: Nrf2-Keap1 complex (Homo sapiens)
Assay: cell-based
Type: cell-based
Conditions: 3 h, read-out: Activation 200 nL
Where a name gives a salt, the structure may show the parent alone.
quantity_measured: activation at 32 µM (%)
The answer is to be given in %; state only the numeric part.

COC(=O)C(N)CS (stereo not drawn) [MECYSTEINEHYDROCHLORIDE, reference compound]
216
NC(=O)c1ccc[n+]([C@@H]2O[C@H](COP(=O)([O-])OP(=O)(O)OC[C@H]3O[C@@H](n4cnc5c(N)ncnc54)[C@H](O)[C@@H]3O)[C@@H](O)[C@H]2O)c1 [NADIDE, reference compound]
16

Then there is this compound:
Respond only with activation at 32 µM recorded for CC(C)C1=CC2=CC[C@@H]3[C@](C)(CCC[C@@]3(C)C(=O)O)[C@H]2CC1
57

----------
Molecular target: Nrf2-Keap1 complex (Homo sapiens, UniProt Q14145)
Experiment: cell-based
Type: cell-based
Recorded measurements of Activation 100 nL, one per entry

CC1(C)C(=O)C=C[C@]2(C)[C@H]3CC[C@@]4(C)[C@H](c5ccoc5)OC(=O)[C@H]5O[C@]54[C@]3(C)C=C[C@@H]12 [7-DESACETOXY-6,7-DEHYDROGEDUNIN]
85%
CC(=O)NC(C(=O)O)C(C)(C)SN=O (stereo not shown) [reference compound]
45%
C[C@]12CCC(=O)C=C1CCc1ccc(O)cc12
26%

Respond only with Activation 100 nL recorded for CC(=O)[O-].CC(=O)[O-].[Cd+2] [CADMIUMACETATE]
47%

Respond only with Activation 100 nL recorded for CC1(C)C(=O)CC[C@]2(C)[C@H]3CC[C@]4(C)C(=CC(=O)O[C@H]4c4ccoc4)[C@]3(C)[C@H](O)C[C@@H]12 [DIHYDRO-7-DESACETYLDEOXYGEDUNIN]
98%

Respond only with Activation 100 nL recorded for CC(=O)N1CCN(c2ccc(OCC3CO[C@](Cn4ccnc4)(c4ccc(Cl)cc4Cl)O3)cc2)CC1 (stereo partly shown) [KETOCONAZOLE, reference compound]
64%

Respond only with Activation 100 nL recorded for CC(=O)O[C@@H]1CC2C(C)(C)C=CC(=O)[C@]2(C)C2CC[C@@]3(C)[C@H](c4ccoc4)OC(=O)C4OC43[C@@]21C (stereo partly shown)
155%
